PROPERTY: melting point

Example results:
Ask: Which value of melting point has been reported for COc1nc(C)cnc1NS(=O)(=O)c1ccccc1-c1ccc(OC(C)C(=O)O)cc1 (stereo not given) in the records?
Result: 188 to 190 °C

Ask: Which value of melting point has been reported for CC(=S)NCC1CC(c2ccc(N3CCSCC3)c(F)c2)=NO1 (stereo not given) in the records?
Result: 219 to 220 °C

Ask: Which value of melting point has been reported for CC1(C)CC(c2ccccn2)c2cc(C(=O)O)ccc2O1 (stereo not given) in the records?
Result: 207 to 208 °C

Ask: Which value of melting point has been reported for "OCc1nc2n(n1)-c1ccccc1N(c1ccc(Cl)cc1)C2" in the records?
Result: 190 to 195 °C

Ask: Which value of melting point has been reported for "CC(C)(C)S(=O)(=O)N1C[C@@H](F)C[C@@H]1c1cc(F)cc(C#N)c1" in the records?
Result: 182 to 184 °C

Ask: Which value of melting point has been reported for "CCCO[C@@H]1[C@@H](OC)[C@H](C)O[C@@H](ON=Cc2ccc(/C=C/c3ccc(OC(F)(F)F)cc3)cc2)[C@@H]1OC" in the records?
Result: 124 to 132 °C

Ask: Which value of melting point has been reported for "Nc1n[nH]c2nc(N3CCOCC3)cc(-c3ccccc3)c12" in the records?
Result: 178 to 180 °C

Ask: Which value of melting point has been reported for "CC(C)(Cc1ccc(Cl)cn1)C(N)=O" in the records?
Result: 51.4 to 53.4 °C

New cases:
Ask: Which value of melting point has been reported for NC1=NC(c2ccc(OC(F)(F)F)cc2)(c2cccc(-c3cccnc3F)c2)C2=NCCCCCN12 (stereo not given) in the records?
Result: 95 to 99 °C

Ask: Which value of melting point has been reported for "Cn1c(N2CCOCC2)nc(C(=O)NCc2ccc(Cl)c(Cl)c2)c(O)c1=O" in the records?
Result: 100 to 102 °C

###

Recorded measurements of melting point, one per entry

Example results:
Ask: Which value of melting point has been reported for "FC(F)(F)c1ccc(CCl)cc1" in the records?
Result: 224 to 228 °C

Ask: Which value of melting point has been reported for "C[C@H](NC(=O)c1c[nH]c2ncc(-c3cn(-c4cccc(Cl)c4)cn3)nc12)C(C)(C)C" in the records?
Result: 337 to 339 °C

Ask: Which value of melting point has been reported for "O=c1oc2ccc(O)cc2c(O)c1-c1ccccc1" in the records?
Result: 261 to 263 °C

Ask: Which value of melting point has been reported for "CC(=O)Nc1cccc2ccc(O)cc12" in the records?
Result: 161 to 162 °C

New cases:
Ask: Which value of melting point has been reported for "COc1c(F)cc(F)c(C(N)=O)c1F" in the records?
Result: 102 °C

Ask: Which value of melting point has been reported for "CC(C)(C)OC(=O)N1CCC(C(=O)N2CCc3ccc4[nH]c(=O)c(=O)[nH]c4c3C2)CC1" in the records?
Result: 283 to 286 °C

Ask: Which value of melting point has been reported for "CCCCC[C@H]1CC[C@H](/C=C/COc2ccc(C(=O)O)cc2)CC1" in the records?
Result: 214 to 215 °C

Ask: Which value of melting point has been reported for "CC(=O)Oc1ccccc1C(=O)Oc1ccc(CO[N+](=O)[O-])cc1" in the records?
Result: 86 to 88 °C

Ask: Which value of melting point has been reported for "CCOC(=O)C(O)=CC=C(SCc1ccccc1)C(=O)OCC" in the records?
Result: < 40 °C

###

Recorded measurements of melting point, one per entry

Ask: Which value of melting point has been reported for "COC(=O)c1ccc(OS(N)(=O)=O)cc1" in the records?
Result: 116 to 118 °C

New cases:
Ask: Which value of melting point has been reported for "COC(=O)CN(NC(N)=O)c1cccc(C)c1" in the records?
Result: 68 to 70 °C

Ask: Which value of melting point has been reported for CS(=O)c1c(Br)nn(-c2c(Cl)cc(C(F)(F)F)cc2Cl)c1N (stereo unspecified) in the records?
Result: 135 to 136 °C

Ask: Which value of melting point has been reported for "O=C(O)CCCSc1cccc(Br)n1" in the records?
Result: 72 to 74 °C

Ask: Which value of melting point has been reported for "CCOC(=O)C1(c2ccccc2)CCN(CC(=O)O)CC1" in the records?
Result: 148 to 150 °C

###

Recorded measurements of melting point, one per entry

Example results:
Ask: Which value of melting point has been reported for "c1ccc(Nc2ncnc3[nH]nc(Nc4ccccc4)c23)cc1" in the records?
Result: 263 to 264 °C

Ask: Which value of melting point has been reported for "CCOC(=O)C1=C2NCCN2CCC1" in the records?
Result: 89 °C

Ask: Which value of melting point has been reported for "COc1cccc(-c2nc3c4ccccc4ccn3n2)c1" in the records?
Result: 159 to 160 °C

New cases:
Ask: Which value of melting point has been reported for "O=C(C=C1c2ccccc2-c2ccccc21)NCCCCCC(=O)NO" in the records?
Result: 174 to 176 °C

Ask: Which value of melting point has been reported for "Cc1nccn1-c1ccc(-c2cnc([C@H](Cc3ccccn3)N(C=O)c3cc4ccccc4[nH]3)n2C)cc1" in the records?
Result: 207 to 211 °C

###

Recorded measurements of melting point, one per entry
Numeric only. Scale: °C

Example results:
Ask: Which value of melting point has been reported for "CCOC(=O)c1cc(O)c(C(=O)NCc2ccccc2)cc1O" in the records?
Result: 110

Ask: Which value of melting point has been reported for COCC(Cl)c1nc2c(C(F)(F)F)cccc2c(O)c1C(=O)Nc1nccs1 (stereo not given) in the records?
Result: 186

Ask: Which value of melting point has been reported for "Cn1ncnc1COc1nn2c(-c3c(F)cccc3F)nncc2c1-c1ccccc1" in the records?
Result: 179

# evaluate next
Ask: Which value of melting point has been reported for "O=C(O)C1CN(Cc2ccc(OCc3ccc(Cl)c(Cl)c3)cc2)C1" in the records?
Result: 166

###

PROPERTY: melting point

Example results:
Ask: Which value of melting point has been reported for "CCN(CC)Cc1cc(NC(C)=O)c2c(c1O)CCCC2" in the records?
Result: 157 to 159 °C

Ask: Which value of melting point has been reported for CCN(CC)CCN1C(=O)Nc2cnccc2C1c1ccccc1 (stereo not given) in the records?
Result: 138 to 140 °C

Ask: Which value of melting point has been reported for "Cc1oc(-c2ccco2)nc1COc1ccc(CCCn2ccnc2)cc1" in the records?
Result: 89 to 90 °C

Ask: Which value of melting point has been reported for "Cc1nnc(-c2ccccc2F)n2nc(OCc3ncnn3C)c(-c3ccccc3)c12" in the records?
Result: 159 to 162 °C

Ask: Which value of melting point has been reported for "COc1cc(C(=O)O)c(O)c2c1C(C)(C)CCC2(C)C" in the records?
Result: 213 °C

New cases:
Ask: Which value of melting point has been reported for CC(=O)OC1CSC(Oc2ccc(-c3cccnc3F)nc2)C(OC(C)=O)C1OC(C)=O (stereo not given) in the records?
Result: 153 °C

Ask: Which value of melting point has been reported for "COc1ccc(CCN2CCC(NC(=O)c3ccccc3)CC2)cc1OC" in the records?
Result: 194 to 195 °C

Ask: Which value of melting point has been reported for "Cc1cc(-c2ccc(S(C)(=O)=O)cc2)n(-c2ccc(F)cc2)c1Br" in the records?
Result: 158 to 159 °C

###

Recorded measurements of melting point, one per entry

Ask: Which value of melting point has been reported for O=C1[C@H]2CCC[C@H]2N(C(=O)CNS(=O)(=O)c2ccccc2)c2ccccc2N1Cc1ccccc1 (relative stereo) in the records?
Result: 185 to 187 °C

Ask: Which value of melting point has been reported for CCCN(CCC)C1Cc2c[nH]c3ccc(C(=O)CC)c(c23)C1 (stereo not given) in the records?
Result: 149 to 150 °C

Ask: Which value of melting point has been reported for "Oc1ccccc1C=Nc1ccc(O)c2ccccc12" in the records?
Result: 154 to 157 °C

Ask: Which value of melting point has been reported for CC#CC1(C)OC(=O)Nc2ccc(-c3cccc(Cl)c3)cc21 (stereo not given) in the records?
Result: 184 to 185 °C

Ask: Which value of melting point has been reported for "N#CCNC(=O)c1ccc(Cl)c(Cl)c1" in the records?
Result: 144 to 145 °C

New cases:
Ask: Which value of melting point has been reported for O=C1C2CCCCC2C(=O)N1c1c(F)cc(F)cc1F (stereo not given) in the records?
Result: 129 to 131 °C

Ask: Which value of melting point has been reported for "N#Cc1cn(-c2c(Cl)cccc2Cl)c(=O)[nH]c1=O" in the records?
Result: 273 to 274 °C

Ask: Which value of melting point has been reported for "O=c1c(O)cn(-c2cccc(C(F)(F)F)c2)nc1-c1ccnn1-c1ccccc1" in the records?
Result: 246 to 248 °C

Ask: Which value of melting point has been reported for "CSc1ccc(-c2[nH]c3cccc4c3c2CCNC4=O)cc1" in the records?
Result: 250 to 251 °C

Ask: Which value of melting point has been reported for "N[C@H]1CCN(c2cc3c(cc2F)c(=O)c(C(=O)O)cn3-c2c[nH]nn2)C1" in the records?
Result: 300 °C

Ask: Which value of melting point has been reported for "CC(C)(C)OC(=O)CN1CCOc2ccc([N+](=O)[O-])cc2C1=O" in the records?
Result: 190 °C

Ask: Which value of melting point has been reported for "CC(C)Oc1cc(CCCOc2cc(CCC(=O)O)n(C)n2)cc(COc2ccc(Cl)cc2Cl)c1" in the records?
Result: 116 to 120 °C

Ask: Which value of melting point has been reported for "CONS(=O)(=O)c1cc(Cl)c(Cl)cc1Cl" in the records?
Result: 163 to 166 °C

Ask: Which value of melting point has been reported for "CSCCCn1c(C)nc2c(N)nc3ccccc3c21" in the records?
Result: 199 to 202 °C
